Experiment: physchem
Assay type: physicochemical
Conditions: pH 0.5, aqueous buffer, Solubility
quantity measured: solubility (µg/mL)
Numbers only, in µg/mL.

## Input Given the compound CCC(CC)COC(=O)[C@H](C)N[P@](=O)(OC[C@H]1O[C@@](C#N)(c2ccc3c(N)ncnn23)[C@H](O)[C@@H]1O)Oc1ccccc1 , what is its reported solubility?
## Output 950

###

Test: physchem
Type: physicochemical
Settings: pH 0.98, simulated gastric fluid, Solubility
Text: The solubility of Remdesivir was screened in a range of different acids to test the effect of pH and acidity on Remdesivir solubility.
quantity measured: solubility

## Input Given the compound CCC(CC)COC(=O)[C@H](C)N[P@](=O)(OC[C@H]1O[C@@](C#N)(c2ccc3c(N)ncnn23)[C@H](O)[C@@H]1O)Oc1ccccc1 , what is its reported solubility?
## Output 2490 µg/mL

###

Assay: physchem
Assay type: physicochemical
Details: aqueous with cosolvent or surfactant or cyclodextrin, TWEEN 20 (Polysorbate 20) 0.16 % w/w in water; read-out: Remdesivir Solubility
quantity measured: solubility (µg/mL)
One number for each entry, in µg/mL.

## Input Given the compound CCC(CC)COC(=O)[C@H](C)N[P@](=O)(OC[C@H]1O[C@@](C#N)(c2ccc3c(N)ncnn23)[C@H](O)[C@@H]1O)Oc1ccccc1 , what is its reported solubility?
## Output 16

###

Test: physchem
Format: physicochemical
Conditions: aqueous with cosolvent or surfactant or cyclodextrin, TWEEN 80 (Polysorbate 80) 0.30 % w/w in water; read-out: Remdesivir Solubility
quantity measured: solubility (µg/mL)
One number for each entry, in µg/mL.

## Input Given the compound CCC(CC)COC(=O)[C@H](C)N[P@](=O)(OC[C@H]1O[C@@](C#N)(c2ccc3c(N)ncnn23)[C@H](O)[C@@H]1O)Oc1ccccc1 , what is its reported solubility?
## Output 33

###

Assay: physchem
Assay type: physicochemical
Conditions: pH 1.89, simulated gastric fluid, Solubility
Excerpt: The solubility of Remdesivir was screened in a range of different acids to test the effect of pH and acidity on Remdesivir solubility.
quantity measured: solubility (µg/mL)
Numbers only, in µg/mL.

## Input Given the compound CCC(CC)COC(=O)[C@H](C)N[P@](=O)(OC[C@H]1O[C@@](C#N)(c2ccc3c(N)ncnn23)[C@H](O)[C@@H]1O)Oc1ccccc1 , what is its reported solubility?
## Output 340

###

Experiment: physchem
Format: physicochemical
Details: aqueous with cosolvent or surfactant or cyclodextrin, Poloxamer P407 0.07 % w/w in water; read-out: Remdesivir Solubility
quantity measured: solubility (µg/mL)
Give bare numbers, in µg/mL.

## Input Given the compound CCC(CC)COC(=O)[C@H](C)N[P@](=O)(OC[C@H]1O[C@@](C#N)(c2ccc3c(N)ncnn23)[C@H](O)[C@@H]1O)Oc1ccccc1 [Remdesivir] , what is its reported solubility?
## Output 6

###

Assay: physchem
Type: physicochemical
Settings: pH 6.18, aqueous buffer, Solubility
quantity measured: solubility

## Input Given the compound CCC(CC)COC(=O)[C@H](C)N[P@](=O)(OC[C@H]1O[C@@](C#N)(c2ccc3c(N)ncnn23)[C@H](O)[C@@H]1O)Oc1ccccc1 , what is its reported solubility?
## Output 0.9 µg/mL

###

Assay: physchem
Format: physicochemical
Conditions: pH 3.5, aqueous buffer, Solubility
quantity measured: solubility (µg/mL)
Answers are plain numbers, in µg/mL.

## Input Given the molecule CCC(CC)COC(=O)[C@H](C)N[P@](=O)(OC[C@H]1O[C@@](C#N)(c2ccc3c(N)ncnn23)[C@H](O)[C@@H]1O)Oc1ccccc1 [Remdesivir] , what is its reported solubility?
## Output 10

The values you see were collected from patent US20230355649A1.
